Tested on: HOP-92 NSCLC
Test: NCI tumour cell line growth inhibition, 48 h
quantity: TGI (µM)

>  <molecule>
C/C(=N\Nc1nc2ccccc2[nH]1)c1ncccn1

>  <bound-operator>
=

>  <observed-result>
1.93

$$$$
>  <molecule>
O=c1[nH]nc(-c2ccccc2)c2[nH]c3c(c12)Cc1ccccc1-3

>  <bound-operator>
=

>  <observed-result>
9.68

$$$$
>  <molecule>
CC(/C=C/C(=O)c1sc(C(N)=S)nc1C)=C\c1ccccc1

>  <bound-operator>
>

>  <observed-result>
100

$$$$
>  <molecule>
CN(C)C=N[C@@H](C(=O)O)c1ccccc1

>  <bound-operator>
>

>  <observed-result>
100

$$$$
>  <molecule>
CN1CCN(Cc2ccc(NC(=O)c3[nH]ncc3Nc3ncnc4[nH]ccc34)cc2)CC1

>  <bound-operator>
=

>  <observed-result>
0.741

$$$$
>  <molecule>
Cc1cc2c(c(C(=O)NCC(=O)O)c1)Oc1c(cc(C)cc1C(=O)NCC(=O)O)S2

>  <bound-operator>
>

>  <observed-result>
100

$$$$
>  <molecule>
NC(N)=NC(N)=Nc1ccc(C(=O)O)cc1

>  <bound-operator>
>

>  <observed-result>
100

$$$$
>  <molecule>
COc1c(C)c(C/C=C(\C)CCCC(C)CCCC(C)CCCC(C)C)c(OC)c2ccccc12 (stereo unspecified)

>  <bound-operator>
>

>  <observed-result>
100

$$$$
>  <molecule>
O=C(c1ccccc1)c1nnn(Cc2ccccc2Cn2nnc(C(=O)c3ccccc3)c2C(=O)c2ccccc2)c1C(=O)c1ccccc1

>  <bound-operator>
>

>  <observed-result>
100

$$$$
>  <molecule>
COc1ccc(/C=C2\CCCc3ccccc3C2=O)cc1

>  <bound-operator>
=

>  <observed-result>
88.1

$$$$
>  <molecule>
O=C1CC(c2cccc(Cl)c2)Oc2ccccc21 (stereo unspecified)

>  <bound-operator>
=

>  <observed-result>
42.2

$$$$
>  <molecule>
CC12CCC(=O)C(O1)C1C(=O)c3ccc4c(ccc5ccccc54)c3C(=O)C12 (stereo unspecified)

>  <bound-operator>
=

>  <observed-result>
32.3

$$$$
>  <molecule>
CC(C)N(C(=O)C12C3C4C5(C(=O)O)C(C1C35I)C42C(=O)O)C(C)C (stereo unspecified)

>  <bound-operator>
>

>  <observed-result>
100

$$$$
>  <molecule>
O=c1[nH]n(CCc2ccccc2CCl)c2ccc([N+](=O)[O-])cc12

>  <bound-operator>
>

>  <observed-result>
100

$$$$
>  <molecule>
CN(C)CCN1C(=O)c2cccc3c(/C=C/CN4C(=O)c5cccc6cccc(c56)C4=O)ccc(c23)C1=O

>  <bound-operator>
=

>  <observed-result>
20.1

$$$$
>  <molecule>
COC(=O)CC1(O)C=CC(=O)C=C1

>  <bound-operator>
=

>  <observed-result>
22.6

$$$$
>  <molecule>
CCCCC#Cc1c(I)n(C2OC(CO[Si](C)(C)C(C)(C)C)C3OC(C)(C)OC32)c(=O)n(C(=O)c2ccccc2)c1=O (stereo unspecified)

>  <bound-operator>
=

>  <observed-result>
13.5

$$$$
>  <molecule>
CC(OP(=O)(O)O)C(N)C(=O)O (stereo unspecified)

>  <bound-operator>
>

>  <observed-result>
100

$$$$
>  <molecule>
Fc1ccc2c(c1)C1=C(CCC2)C(c2ccc(Cl)cc2)NC(=S)N1 (stereo unspecified)

>  <bound-operator>
=

>  <observed-result>
73.9

$$$$
>  <molecule>
N#C/C(=C/N1CCN(C(=O)c2ccco2)C1=S)C(=O)Nc1ccc(Cl)cc1

>  <bound-operator>
>

>  <observed-result>
50

$$$$
>  <molecule>
COc1cc2c3c(n(C)c(=O)c2cc1OC)-c1cc2c(cc1/C3=C\CCCCCBr)OCO2

>  <bound-operator>
=

>  <observed-result>
38.7

$$$$

====

System: COLO 205 colon
Assay: NCI tumour cell line growth inhibition, 48 h
quantity: log10(TGI) (log10 of the value in µM)

>  <compound>
O=[N+]([O-])c1cc(/C=N\NS(=O)(=O)c2ccc(Cl)cc2)c(O)c([N+](=O)[O-])c1

>  <log10(TGI)>
1.49

$$$$
>  <compound>
O=C1C=CC(=O)c2c(O)c(N3CCOCC3)c(Cl)c(O)c21

>  <log10(TGI)>
-0.40

$$$$
>  <compound>
CN1CCN(C(=O)c2ccc(NC(=O)Nc3ccc(-c4nc(N5CCOCC5)c5cccn5n4)cc3)cc2)CC1

>  <log10(TGI)>
0.14

$$$$
>  <compound>
COC(=O)CCC(=O)NC1=C(Nc2ccccc2)C(=O)c2ccccc2C1=O

>  <log10(TGI)>
1.55

$$$$
>  <compound>
N/N=C(/N)SCCCCCCCCCCS/C(N)=N/N

>  <log10(TGI)>
1.44

$$$$
>  <compound>
O=C1N2CCC[C@H]2CS1(=O)=O

>  <log10(TGI)>
1.46

$$$$
>  <compound>
CCCCC#Cc1c(I)n(C2OC(CO[Si](C)(C)C(C)(C)C)C3OC(C)(C)OC32)c(=O)n(C(=O)c2ccccc2)c1=O (stereo unspecified)

>  <log10(TGI)>
0.50

$$$$
>  <compound>
CN(C)c1ccc(/C=c2/c3ccccc3n3c2cc(/C=C/c2ccccc2)[n+]3C)cc1

>  <log10(TGI)>
-0.50

$$$$
>  <compound>
O=C1c2ccncc2C(=O)c2c(O)ccc(O)c21

>  <log10(TGI)>
1.12

$$$$
>  <compound>
COc1ccc(C2NN=C3c4ccccc4CCC32)cc1 (stereo unspecified)

>  <log10(TGI)>
1.35

$$$$
>  <compound>
O=C1CC(C2(O)C(=O)Nc3ccc([N+](=O)[O-])cc32)c2ccccc21 (stereo unspecified)

>  <log10(TGI)>
1.85

$$$$
>  <compound>
CC1=C(CO)C(=O)O[C@@H]([C@@H](C)[C@H]2CC[C@H]3[C@@H]4C[C@H]5O[C@]56[C@@H](O)C=CC(=O)[C@]6(C)[C@H]4CC[C@]23C)C1

>  <log10(TGI)>
-0.09

$$$$

====

Test system: IGROV1 ovarian
Test: NCI tumour cell line growth inhibition, 48 h
Where a SMILES comes first, the peptide text is derived from it. [ ]: non-standard residue; d: D form. The star is where a group is joined. Phe(4-NO2) = N[CH](Cc1ccc([N+](=O)[O-])cc1)C(=O)O; Boc = CC(C)(C)OC(=O)*

>  <molecule>
O=C1CC(c2cccc(Cl)c2)Oc2ccccc21 (stereo unspecified)

>  <TGI>
50.7 µM

$$$$
>  <molecule>
COc1ccc2nc(C)cc(Sc3nc4ccccc4s3)c2c1

>  <TGI>
13.9 µM

$$$$
>  <molecule>
COc1cccc2c1OC1c3ccccc3OCC1(O)C2 (stereo unspecified)

>  <TGI>
> 100 µM

$$$$
>  <molecule>
CCC1=C(C[C@H]2NCCc3cc(OC)c(OC)cc32)C[C@H]2c3cc(OC)c(OC)cc3CCN2C1

>  <TGI>
0.444 µM

$$$$
>  <molecule>
Cc1cc(S(=O)(=O)Nc2nc3cscc3c(=O)n2N)c(S)cc1Cl

>  <TGI>
> 100 µM

$$$$
>  <molecule>
O=[N+]([O-])c1ccc(N2N=C(c3c(O)ccc4ccccc34)CC2c2ccc(Cl)cc2)c([N+](=O)[O-])c1 (stereo unspecified)

>  <TGI>
> 100 µM

$$$$
>  <molecule>
c1ccc2c(Nc3ncco3)cccc2c1

>  <TGI>
> 10 µM

$$$$
>  <molecule>
Cc1c(OCc2cccc3ccccc23)ccc2c(=O)cc(SCCN3CCOCC3)oc12

>  <TGI>
> 100 µM

$$$$
>  <molecule>
Nc1c(C(=O)c2cccc(C(O)CO)c2)cnn1-c1ccc(F)cc1 (stereo unspecified)

>  <TGI>
> 25 µM

$$$$
>  <molecule>
O=C1C=CC(=O)c2c1ccc1c3ccccc3n(Cc3ccccc3)c21

>  <TGI>
46.2 µM

$$$$
>  <molecule>
CC(C)(C)c1cc(OCc2nnc3sc(Cc4ccccc4)nn23)c(Cl)cc1OCc1nnc2sc(Cc3ccccc3)nn12

>  <TGI>
52.4 µM

$$$$
>  <molecule>
COc1ccc(C2NN=C3c4ccccc4CCC32)cc1 (stereo unspecified)

>  <TGI>
21.4 µM

$$$$
>  <molecule>
O=C1N2CCC[C@H]2CS1(=O)=O

>  <TGI>
34.7 µM

$$$$
>  <molecule>
CCOC(=O)CCC(NC(=O)C(Cc1ccc([N+](=O)[O-])cc1)NC(=O)OC(C)(C)C)C(=O)NC(CCC(=O)OCC)C(=O)OCC (stereo unspecified) (Boc-[Phe(4-NO2)]-Glu(OEt)-Glu(OEt)-OEt; configuration not given here)

>  <TGI>
38.3 µM

$$$$
>  <molecule>
O=C1NC(=O)C(c2cccc(Cl)c2)=C1Nc1ccc(Cl)c(C(=O)O)c1

>  <TGI>
> 25 µM

$$$$
>  <molecule>
Fc1ccc2c(c1)C1=C(CCC2)C(c2ccc(Cl)cc2)NC(=S)N1 (stereo unspecified)

>  <TGI>
> 100 µM

$$$$
>  <molecule>
CCOC(=O)C1CCC(=O)N1C(=O)c1cccc(Cl)c1 (stereo unspecified)

>  <TGI>
> 100 µM

$$$$
>  <molecule>
CCCCCCCCCCCNC=O

>  <TGI>
> 100 µM

$$$$
>  <molecule>
O=c1c2ccccc2nc(N/N=C/c2ccc([N+](=O)[O-])cc2)n1-c1ccccc1

>  <TGI>
> 100 µM

$$$$
>  <molecule>
CCCCCCCC(=O)[O-].CCCCCCCC(=O)[O-].N.N.N.N.[Co+3].[O-][Cl+3]([O-])([O-])[O-]

>  <TGI>
> 100 µM

$$$$
>  <molecule>
CCC1CCCCN1CC(C(C)=O)C(c1ccccc1)c1c(O)c2ccccc2oc1=O (stereo unspecified)

>  <TGI>
> 100 µM

$$$$

Origin of values: PubChem BioAssay (NCI)
